Each recorded value in this set is attributed to patent US12286425B2.

system: monocotyledonous and dicotyledonous weeds and crop plants; assay: Post-emergence herbicidal action and crop plant compatibility (PO), including comparison with A-117; type: in vivo; settings: post-emergence (PO), Abutilon theophrasti, application rate 80, rated visually after about 3 weeks
Herbicidal activity ABUTH: recorded values
Record the value in %, omitting the unit from your answer.

[
  {
    "molecule": "Cn1nnnc1NC(=O)c1ccc(C(F)(F)F)c2c1OCC[S+]2[O-] (stereo not drawn) [Example 2-17]",
    "studySystem": "monocotyledonous and dicotyledonous weeds and crop plants",
    "endpoint": "Herbicidal activity ABUTH",
    "readingUnit": "%",
    "reportedResult": 100
  },
  {
    "molecule": "CCn1nnnc1NC(=O)c1ccc(C(F)(F)F)c2c1OCCS2 [Example 3-13]",
    "studySystem": "monocotyledonous and dicotyledonous weeds and crop plants",
    "endpoint": "Herbicidal activity ABUTH",
    "readingUnit": "%",
    "reportedResult": 100
  },
  {
    "molecule": "Cn1nnnc1NC(=O)c1ccc(C(F)(F)F)c2c1OCCS2 [Example 2-13]",
    "studySystem": "monocotyledonous and dicotyledonous weeds and crop plants",
    "endpoint": "Herbicidal activity ABUTH",
    "readingUnit": "%",
    "reportedResult": 100
  },
  {
    "molecule": "CCn1nnnc1NC(=O)c1ccc(C(F)(F)F)c2c1OCCS2(=O)=O [Example 3-19]",
    "studySystem": "monocotyledonous and dicotyledonous weeds and crop plants",
    "endpoint": "Herbicidal activity ABUTH",
    "readingUnit": "%",
    "reportedResult": 90
  },
  {
    "molecule": "Cn1nnnc1NC(=O)c1ccc(C(F)(F)F)c2c1OCCS2(=O)=O [Example 2-20]",
    "studySystem": "monocotyledonous and dicotyledonous weeds and crop plants",
    "endpoint": "Herbicidal activity ABUTH",
    "readingUnit": "%",
    "reportedResult": 100
  }
]

We now examine a further molecule.
Query (molecule): CCn1nnnc1NC(=O)c1ccc(C(F)(F)F)c2c1OCC[S+]2[O-] (stereo not drawn) [Example 3-16] ; field requested: Herbicidal activity ABUTH
100

====

tested on: AVEFA; assay: Pre-emergence herbicidal action (PE), greenhouse pot test, AVEFA; type: in vivo; settings: pre-emergence (PE); application rate 320; scored visually after about 3 weeks vs untreated controls; 100% = plants have died, 0% = like control plants
endpoint: herbicidal activity AVEFA
Answer with the number, then the unit.

Reference set, count: 3
[
  {
    "compound": "Cn1nnnc1NC(=O)c1ccc(C(F)(F)F)c2c1OCCS2 [Example 2-13]",
    "endpoint": "herbicidal activity AVEFA",
    "reportedResult": "80%"
  },
  {
    "compound": "Cn1nnnc1NC(=O)c1ccc(C(F)(F)F)c2c1OCCS2(=O)=O [Example 2-20]",
    "endpoint": "herbicidal activity AVEFA",
    "reportedResult": "100%"
  },
  {
    "compound": "Cn1nnnc1NC(=O)c1ccc(C(F)(F)F)c2c1OCC[S+]2[O-] (stereo not drawn) [Example 2-17]",
    "endpoint": "herbicidal activity AVEFA",
    "reportedResult": "80%"
  }
]

Fill blank: measured herbicidal activity AVEFA of the compound CCn1nnnc1NC(=O)c1ccc(C(F)(F)F)c2c1OCC[S+]2[O-] (stereo not drawn) [Example 3-16] is ____.
100%

What measured herbicidal activity AVEFA goes with CCn1nnnc1NC(=O)c1ccc(C(F)(F)F)c2c1OCCS2(=O)=O [Example 3-19] ?
90%

Name the reported herbicidal activity AVEFA value associated with the compound CCn1nnnc1NC(=O)c1ccc(C(F)(F)F)c2c1OCCS2 [Example 3-13]
80%

====

test system: monocotyledonous and dicotyledonous weeds and crop plants; test: Post-emergence herbicidal action and crop plant compatibility (PO), including comparison with A-117; assay type: in vivo; details: post-emergence (PO), Stellaria media, application rate 80, rated visually after about 3 weeks
Herbicidal activity STEME listing for selected compounds.
The figure you give is taken to be in %; do not add the unit.

[
  {
    "compound": "CCn1nnnc1NC(=O)c1ccc(C(F)(F)F)c2c1OCCS2(=O)=O [Example 3-19]",
    "endpoint": "Herbicidal activity STEME",
    "reportedResult": 100
  },
  {
    "compound": "Cn1nnnc1NC(=O)c1ccc(C(F)(F)F)c2c1OCC[S+]2[O-] (stereo not drawn) [Example 2-17]",
    "endpoint": "Herbicidal activity STEME",
    "reportedResult": 100
  },
  {
    "compound": "Cn1nnnc1NC(=O)c1ccc(C(F)(F)F)c2c1OCCS2(=O)=O [Example 2-20]",
    "endpoint": "Herbicidal activity STEME",
    "reportedResult": 90
  },
  {
    "compound": "Cn1nnnc1NC(=O)c1ccc(C(F)(F)F)c2c1OCCS2 [Example 2-13]",
    "endpoint": "Herbicidal activity STEME",
    "reportedResult": 90
  },
  {
    "compound": "CCn1nnnc1NC(=O)c1ccc(C(F)(F)F)c2c1OCCS2 [Example 3-13]",
    "endpoint": "Herbicidal activity STEME",
    "reportedResult": 100
  }
]

Continue with the next compound.
Quick one: Herbicidal activity STEME for CCn1nnnc1NC(=O)c1ccc(C(F)(F)F)c2c1OCC[S+]2[O-] (stereo not drawn) [Example 3-16] ?
100
